The reported measurements were obtained from ChEMBL document CHEMBL1201862.

Tested on: LOX IMVI
test-details: NCI tumour cell line growth inhibition, 48 h
Activity calls are given as the source filed them. Rule as the data show it: active = GI50 up to about 1.1 µM and inactive = higher.
Would you mind answering with one of these outcomes? active, inactive

Reference set (4 entries):
molecule: C/C(=N\O)c1ccc2cc(Br)c3ccccc3c2c1
class: inactive

molecule: c1ccc2c(c1)nnn2CNc1ccc(N2CCOCC2)cc1
class: inactive

molecule: N#CCCCC[N+]12CN3CN(CN(C3)C1)C2
class: inactive

molecule: CCOC(=O)N1CCC(N[C@@H]2c3cc4c(cc3[C@@H](c3cc(OC)c(O)c(OC)c3)[C@H]3C(=O)OC[C@@H]32)OCO4)CC1
class: active

*Q* // return assay outcome for CCN(CC)c1ccc(/C=C2/C[N+](C)(C)C/C(=C/c3ccc(N(CC)CC)cc3)C2=O)cc1
*A* inactive

*Q* Please answer likewise for CCCCCCCC(=O)OCC1OC(n2cc(F)c(=O)[nH]c2=O)C(NC(=O)OCc2ccccc2)C(OC(=O)CCCCCCC)C1O (stereo unspecified)
*A* inactive

*Q* Please answer likewise for C[C@H](CCC1SC1(C)C)C1CCC2(C)C3=C(CC[C@]12C)[C@@]1(C)CC[C@H](O)C(C)(C)C1CC3 (stereo partly specified)
*A* inactive

*Q* Please answer likewise for CSc1c(C#N)c(O)n(-c2ccc(C)cc2)c(=O)c1C(C)=O
*A* inactive

*Q* Please answer likewise for CC1=NN2C(=N)/C(=C/c3ccc(F)cc3)C(=O)N=C2S1
*A* inactive

*Q* Please answer likewise for COc1cc(C)cc(OC)c1/C=C/C(=O)O
*A* inactive

*Q* Please answer likewise for S=C(Cc1ccc2c(c1)Sc1ccccc1O2)N1CCOCC1
*A* inactive

*Q* Please answer likewise for O=[N+]([O-])c1cccnc1NCC1(CO)CC(Cc2ccccc2)C1 (stereo unspecified)
*A* inactive

*Q* Please answer likewise for C[C@]12CC[C@H](OC3CCCCO3)CC1=CC[C@@H]1C2CC[C@]2(C)/C(=N/OCCC#N)CCC12 (stereo partly specified)
*A* inactive

*Q* Please answer likewise for CCOC(=O)CC1COc2ccc3c(c21)OCO3 (stereo unspecified)
*A* inactive

*Q* Please answer likewise for COc1ccc(-c2c(C#N)c(O)n(C3OC(CO)C(O)C(O)C3O)c(=S)c2C#N)cc1 (stereo unspecified)
*A* inactive
